study.system: Bcl-w (Homo sapiens, UniProt Q92843, A128E/C29S)
Construct: human Bcl-w (Acc. no. NP_004041; residues 1-164; C29S A128E); made in house
Sequence (Q92843 1-164 C29S/A128E): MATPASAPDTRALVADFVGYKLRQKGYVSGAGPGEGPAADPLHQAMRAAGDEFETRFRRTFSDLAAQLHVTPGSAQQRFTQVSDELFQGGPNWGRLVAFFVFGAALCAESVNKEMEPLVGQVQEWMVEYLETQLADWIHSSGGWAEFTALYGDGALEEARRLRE
measurement.protocol: Solution competition assay (competition with immobilized wtBimBH3, biosensor)
Type: binding
study.conditions: competitor peptide vs immobilized wtBimBH3; read-out: IC50 for Bcl-w
pIC50: −log10 of the molar value. Ends that are not written are not given here.
endpoint.name: pIC50

For reference, reported pIC50 for PAELEVECATQLRRFGDKLNFRQKLL [Noxa (18-43)] stands at < 4.00

---

study.system: Bcl-xL (Homo sapiens)
Construct: Human Bcl-xL (Acc. no. NP_612815; residues 1-209); GST (N, cleaved yes); made in house
Sequence (Q07817 1-209): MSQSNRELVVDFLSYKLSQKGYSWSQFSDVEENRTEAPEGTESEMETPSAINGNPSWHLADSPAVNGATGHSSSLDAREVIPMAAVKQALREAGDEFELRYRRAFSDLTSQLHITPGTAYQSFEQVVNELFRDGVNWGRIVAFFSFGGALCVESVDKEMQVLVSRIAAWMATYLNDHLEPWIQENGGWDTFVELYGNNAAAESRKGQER
measurement.protocol: Solution competition assay (competition with immobilized wtBimBH3, biosensor)
Format: binding
study.conditions: competitor peptide vs immobilized wtBimBH3; read-out: IC50 for Bcl-xL
Ends that are not written are not given here.
Kindly state IC50 for each of the entries shown.

{"substance": "H-PAELEVECATQLRRIGDELNFRQKLL-OH [Noxa (18-43) mt3]", "endpoint.name": "IC50", "value.observed": "110 nM"}

Here is the next item to consider.
Item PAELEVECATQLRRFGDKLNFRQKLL [Noxa (18-43)] was tested on Bcl-xL (Homo sapiens); the reported IC50 is > 100000 nM
